System: TK-10 renal
assay_details: NCI-60 one-dose screen, 48 h (100 = growth as untreated, 0 = no growth, -100 = all killed)
condition_description: 10 µM unless noted
This is part of a sample that, as a whole, favours compounds with a hit. Of some 83,000 tested, about 20% had one in any assay. Active and inactive are the calls of the source. Rule for the calls: active = growth percent below 10; inactive = the rest.
observed_property: growth

[in] Can you look up the measured growth of CNC(C)[C@H]1CCC2C3CC=C4C(=O)[C@@H](NC(=O)C=C(C)C)CC[C@]4(C)C3CC[C@@]21C (stereo partly drawn) for me?
[out] 60.1% (inactive)

[in] Can you look up the measured growth of COc1ccc(C(O)c2cc3c(N)c(C(=O)Nc4cccc(Cl)c4C)sc3nc2C)cc1 (stereo not drawn) for me?
[out] 44.1% (inactive)

[in] Can you look up the measured growth of O=[N+]([O-])c1cc(NS(=O)(=O)c2ccccc2)ccc1NS(=O)(=O)c1ccccc1 for me?
[out] 112% (inactive)

[in] Can you look up the measured growth of O=C(Nc1cnc(Nc2ccc(N3CCOCC3)nc2)nc1Oc1ccc(C(F)(F)F)cc1)c1ccncc1 for me?
[out] 107% (inactive)

[in] Can you look up the measured growth of O=S(=O)(Nc1cc(Sc2cccc3cccnc23)c(O)c2ccccc12)c1ccccc1 for me?
[out] 23.4% (inactive)

[in] Can you look up the measured growth of CCN(CC)CCCOc1ccc2ncnc(Nc3ccc(Oc4cccc(C(F)(F)F)c4)c(Cl)c3)c2c1 for me?
[out] 25.7% (inactive)

[in] Can you look up the measured growth of O=C(NC(Cc1nnc2n(Cc3ccccc3)c(=O)c3c4c(sc3n12)CCCC4)c1ccccc1)c1ccccc1 (stereo not drawn) for me?
[out] 119% (inactive)

[in] Can you look up the measured growth of CCCCCCCCCCCCCOC(=O)c1c(C)[nH]c(/C=C2\N=C(c3ccc[nH]3)C=C2OC)c1C for me?
[out] 34.4% (inactive)

[in] Can you look up the measured growth of CCOC(=O)C(=CNc1cnc(Nc2ccc(N3CCOCC3)cc2)nc1Oc1ccc(OC)cc1)C(=O)OCC for me?
[out] -26% (active)

[in] Can you look up the measured growth of CCN1C(=O)N(CC)C2C1NN=c1s/c(=C\c3ccc[nH]3)c(=O)n12 (stereo not drawn) for me?
[out] 61.6% (inactive)

[in] Can you look up the measured growth of COc1ccc(C(=O)c2cc3c(N)c(C(=O)Nc4ccccc4)sc3nc2C)cc1 for me?
[out] 65.2% (inactive)

[in] Can you look up the measured growth of Cc1ccc2c(-n3nc(C#N)c(C#N)c3N)cc(=O)[nH]c2c1 for me?
[out] 108% (inactive)

[in] Can you look up the measured growth of CC/C=C\C[C@H](O)C/C=C1/C(=O)C=C[C@@H]1C/C=C\CCCC(=O)O for me?
[out] 103% (inactive)

[in] Can you look up the measured growth of COc1ccc(CCN(CC(=O)N(CC(N)=O)C2CCC[C@@H]2OCc2ccccc2)C(=O)CN(C(=O)CN(CCc2ccc(Cl)cc2)C(=O)CN(C(=O)CN(C)Cc2ccccc2F)[C@H](C)C2CCCCC2)[C@H](C)C2CCCCC2)cc1OC (stereo partly drawn) for me?
[out] 15.6% (inactive)

[in] Can you look up the measured growth of COc1cccc(NCc2nnc(Nc3ccc(Cl)cc3)c3ccccc23)c1 for me?
[out] -40.9% (active)

[in] Can you look up the measured growth of CCOC(=O)c1ccccc1-c1c2ccc(=[N+](C)C)cc-2oc2cc(N(C)C)ccc12 for me?
[out] 32% (inactive)

[in] Can you look up the measured growth of CC1=C(C(=O)Nc2ccccc2)C(c2ccc3c(c2)OCO3)NC(=S)N1 (stereo not drawn) for me?
[out] 97.8% (inactive)

[in] Can you look up the measured growth of NC1(CO)COC(c2ccccc2)OC1 (stereo not drawn) for me?
[out] 96.5% (inactive)
